# Test system: MCF7 breast
# Test Details: NCI tumour cell line growth inhibition, 48 h
Measured Endpoint: TGI

Recorded TGI, per entry:
>  <Molecule>
Nc1ccc(-c2nn3c(COc4ccc(Cl)cc4)nnc3s2)cc1

>  <Target Or System>
MCF7 breast

>  <TGI>
> 100 µM

$$$$
>  <Molecule>
CC(C)=CCC[C@@H](C)C1=C(O)C(N)=C(C)C(=O)C1=O

>  <Target Or System>
MCF7 breast

>  <TGI>
> 100 µM

$$$$

Challenge: Returns the measured TGI for the input molecule. Input: COC1C(O)C(O[C@H]2CC[C@@]3(C)C(CC[C@@H]4[C@@H]3CC[C@]3(C)[C@@H](C(C)OC5OC(CO)C(O)C(O)C5O)CC[C@]43O)C2)OC(C)C1OC1OC(CO)C(O)C(O)C1O (stereo partly drawn)
Response given: > 100 µM

----------
# Tested on: SK-MEL-28 melanoma
# Test Details: NCI tumour cell line growth inhibition, 48 h
Give measured TGI for each item. Keep answers brief.
Answers are plain numbers, in µM.

>  <Structure As Smiles>
O=C1C=CC(=O)C(CNc2ccc(C(=O)OCc3ccccc3)cc2)=C1

>  <Endpoint Unit>
µM

>  <TGI>
17.4

$$$$

Let us examine a further case.
Challenge: Returns the measured TGI for the input compound. Input: Cc1cc(O)c(-c2cc(O)c(C)cc2O)cc1O
Response given: 22.7

----------
# Test system: KM12 colon
# Test Details: NCI tumour cell line growth inhibition, 48 h
Measured Endpoint: TGI

Below is a list of molecules. For each, state its recorded TGI.
1. C[C@H]1[C@H](C)CC[C@]2(C(=O)OC3OC(CO)C(O)C(O)C3O)CC[C@]3(C)C(=CC[C@@H]4[C@@]5(C)C[C@H]6OC(=O)c7cc(O)c(O)c(O)c7-c7c(cc(O)c(O)c7O)C(=O)O[C@@H]6C(CO)(CO)[C@@H]5CC[C@]43C)[C@H]12 (some centres undefined)
2. CC(C)/C(Cl)=N/OC(=O)Nc1ccc(OC(F)(F)F)cc1

Response given:
["> 100 µM", "30.3 µM"]

Below is a list of molecules. For each, state its recorded TGI.
1. CN1N=C(c2ccncc2)OC1c1ccccc1F (centres undefined)
2. O=C(O)/C=C\C(=O)Nc1ccc(S(=O)(=O)c2ccc(NC(=O)/C=C\C(=O)O)cc2)cc1

Response given:
["> 100 µM", "> 100 µM"]

Below is a list of molecules. For each, state its recorded TGI.
1. CC1OC(c2ccc3c(c2O)C(=O)C2=C(C3=O)C3(O)C(=O)CC(C)(O)CC3(O)C=C2)CC(O)C1O (centres undefined)
2. O=C(O)CN(CC(=O)O)C(C(=O)O)c1ccccc1 (centres undefined)
3. O=C1c2cccc(O)c2C(=O)c2c(O)cc(CO)cc21
4. Cc1cccc(/C(Br)=C2/OC(=O)c3ccccc32)c1
5. C=C1C2Oc3ccccc3C1N(c1ccccc1)O2 (centres undefined)
6. COc1ccc(OC)c2sc(N3C(=O)/C(=C/c4cccc([N+](=O)[O-])c4)N=C3c3ccccc3)nc12
7. CC(=Nc1ccc(S(N)(=O)=O)cc1)c1c(O)[nH]c2ccccc12
8. COc1ccc2[nH]c(-c3ccc(O)cc3)cc(=O)c2c1

Response given:
> 60.6 µM
> 100 µM
> 100 µM
> 100 µM
42.2 µM
> 100 µM
> 25 µM
7.09 µM

----------
# System: M14 melanoma
# Test Details: NCI tumour cell line growth inhibition, 48 h
Give measured TGI for each item. Keep answers brief.

Recorded TGI, per entry:
>  <Compound>
O=C(O)CN(CC(=O)O)C(C(=O)O)c1ccccc1 (centres undefined)

>  <TGI>
> 100 µM

$$$$
>  <Compound>
N#C/C(=C1\SC(N=Nc2ccc(Cl)cc2)C(=O)N1c1ccccc1)c1nc2ccccc2[nH]1 (centres undefined)

>  <TGI>
> 100 µM

$$$$
>  <Compound>
COC(=O)c1ccc2c(c1)C(=O)c1c-2n(CCCN=[N+]=[N-])c(=O)c2cc([N+](=O)[O-])ccc12

>  <TGI>
> 100 µM

$$$$
>  <Compound>
CON(C)C(=O)C1CCCO1 (centres undefined)

>  <TGI>
> 100 µM

$$$$
>  <Compound>
O=S1SC(=S)C2C=CC=CC21 (centres undefined)

>  <TGI>
> 100 µM

$$$$

Below is a list of compounds. For each, state its recorded TGI.
1. N#Cc1c(-c2ccccc2)c2c([nH]c1=O)-c1cc([N+](=O)[O-])ccc1CCC2
2. O=C(O)/C=C\C(=O)Nc1ccc(S(=O)(=O)c2ccc(NC(=O)/C=C\C(=O)O)cc2)cc1
3. C=CCN1C(=O)/C(=C/c2ccc(C)cc2)N=C1SC1OC(COC(C)=O)C(OC(C)=O)C(OC(C)=O)C1OC(C)=O (centres undefined)
4. CC(=O)[CH-]C(=O)c1ccccc1.CC(=O)[CH-]C(=O)c1ccccc1.CC1(C)OCC(C2OC3OC(C)(C)OC3C2[O-])O1.CC[O-].[Ti+4] (centres undefined)

Response given:
["93.4 µM", "> 100 µM", "> 100 µM", "36.1 µM"]

----------
# Tested on: T-47D breast
# Test Details: NCI tumour cell line growth inhibition, 48 h; in the data active = GI50 below about 0.43 µM; inactive = the rest
Please state which outcome applies, choosing from active, inactive

Solved cases (4 shown):
>  <Structure As Smiles>
COC(=O)c1ccc2c(c1)C(=O)c1c-2n(CCCN=[N+]=[N-])c(=O)c2cc([N+](=O)[O-])ccc12

>  <Class Name>
inactive

$$$$
>  <Structure As Smiles>
O=[N+]([O-])c1ccc(-c2cc3c(Nc4ccc(Cl)c(C(F)(F)F)c4)ncnc3s2)cc1

>  <Class Name>
active

$$$$
>  <Structure As Smiles>
COc1cccc(COc2cc(-n3cnc4ccccc43)sc2C(N)=O)c1

>  <Class Name>
inactive

$$$$
>  <Structure As Smiles>
O=C(NCCN1CCNCC1)c1ccc(Nc2nc3ccccc3c3occc23)cc1

>  <Class Name>
inactive

$$$$

Okay, now this compound:
Challenge: What was the test verdict on Fc1ccc2nc(-c3cc(-c4ccc5c(c4)OCO5)n[nH]3)[nH]c2c1 ?
Response given: inactive

----------
# System: LOX IMVI melanoma
# Test Details: NCI tumour cell line growth inhibition, 48 h
Measured Endpoint: TGI (µM)
One number for each entry, in µM.

>  <Structure As Smiles>
COc1ccc(-n2nc(C)c3c(Nc4ccc(NC(=O)Nc5ccc(Cl)c(C(F)(F)F)c5)cc4)ncnc32)cc1

>  <Target Or System>
LOX IMVI melanoma

>  <TGI / µM>
2.67

$$$$

Let us examine a further case.
Challenge: Returns the measured TGI for the input compound. Input: c1ccc([P+](CCCCCCCC[P+](c2ccccc2)(c2ccccc2)c2ccccc2)(c2ccccc2)c2ccccc2)cc1
Response given: 32.9

----------
# Test system: SW-620 colon
# Test Details: NCI tumour cell line growth inhibition, 48 h
Give measured TGI for each item. Keep answers brief.

Recorded TGI, per entry:
>  <Compound>
COc1cc(/C=C2\CCC(C)/C(=C\c3cc(OC)c(OC)c(OC)c3)C2=O)cc(OC)c1OC (centres undefined)

>  <TGI>
> 100 µM

$$$$
>  <Compound>
COc1nc2c(N3CCCC3)nc(N3CCNCC3)nc2nc1NCc1ccccc1

>  <TGI>
11.1 µM

$$$$

Below is a list of compounds. For each, state its recorded TGI.
1. c1ccc2c(c1)CCCC/C2=N/OCC1CO1 (centres undefined)
2. O=C1/C(=C/c2ccc([N+](=O)[O-])cc2)COc2ccc(O)cc21

Response given:
["> 100 µM", "3.3 µM"]

Below is a list of compounds. For each, state its recorded TGI.
1. CC(C)C(N)C(=O)NC(CCC(=O)NCCCCC(N)C(=O)NCCCNc1ccc([N+](=O)[O-])c2[nH]c3ccccc3c(=O)c12)C(N)=O (centres undefined)
2. O=C(OCC1OC(n2nc(Cn3nnc(-c4cccnc4)n3)n(-c3cccc4ccccc34)c2=S)C(OC(=O)c2ccccc2)C1OC(=O)c1ccccc1)c1ccccc1 (centres undefined)

Response given:
1. > 100 µM
2. > 100 µM

Below is a list of compounds. For each, state its recorded TGI.
1. c1ccc([P+](CCCCCCCC[P+](c2ccccc2)(c2ccccc2)c2ccccc2)(c2ccccc2)c2ccccc2)cc1
2. COc1ccc(NC(C)c2ccncc2)cc1 (centres undefined)
3. Cc1cc2c(cc1Cl)S/C(=C/C(=O)O)C(Nc1cccc3nsnc13)=NS2(=O)=O

Response given:
> 100 µM
> 100 µM
> 67.6 µM

----------
# Test system: TK-10 renal
# Test Details: NCI tumour cell line growth inhibition, 48 h
Decision: TGI >= 30 µM yields Yes, all other cases yield No.

Challenge: Threshold query (TGI >= 30 µM) on CC1(O)CCn2c(=O)c3cc4ccccc4cc3c(=O)n2C1O (stereo not given)
Response given: Yes

Challenge: And C=C1C(=O)C23C(O)C1CC[C@H]2C12CCCC(C)(COC(C)=O)[C@H]1[C@H](O)[C@]3(O)OC2 (stereo not given in full) ?
Response given: No
